The following compounds are listed with their measured pIC50 values.
# ASSAYED_TARGET: CDK7/CycH/MNAT1 (Homo sapiens (Human), UniProt P50613)
# Sequence (P50613 whole entry): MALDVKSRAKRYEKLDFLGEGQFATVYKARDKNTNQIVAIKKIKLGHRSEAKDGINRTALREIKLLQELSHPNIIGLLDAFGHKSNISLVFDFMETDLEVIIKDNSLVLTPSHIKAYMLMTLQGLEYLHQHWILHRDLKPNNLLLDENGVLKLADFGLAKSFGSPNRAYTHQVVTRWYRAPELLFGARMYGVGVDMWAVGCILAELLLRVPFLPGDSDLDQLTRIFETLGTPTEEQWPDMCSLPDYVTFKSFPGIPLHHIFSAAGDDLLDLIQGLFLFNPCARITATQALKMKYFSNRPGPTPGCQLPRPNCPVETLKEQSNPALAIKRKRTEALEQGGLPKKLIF
# Sequence (P51946 whole entry partner): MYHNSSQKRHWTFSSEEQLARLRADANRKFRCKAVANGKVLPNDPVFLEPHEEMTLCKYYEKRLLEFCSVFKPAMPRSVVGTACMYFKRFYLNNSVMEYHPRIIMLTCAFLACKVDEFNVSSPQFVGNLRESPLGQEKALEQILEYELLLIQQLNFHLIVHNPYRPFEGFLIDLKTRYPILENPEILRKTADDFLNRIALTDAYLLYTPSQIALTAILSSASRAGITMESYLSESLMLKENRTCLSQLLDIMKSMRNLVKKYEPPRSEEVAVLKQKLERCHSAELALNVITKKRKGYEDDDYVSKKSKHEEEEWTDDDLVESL
# Sequence (P51948 whole entry partner): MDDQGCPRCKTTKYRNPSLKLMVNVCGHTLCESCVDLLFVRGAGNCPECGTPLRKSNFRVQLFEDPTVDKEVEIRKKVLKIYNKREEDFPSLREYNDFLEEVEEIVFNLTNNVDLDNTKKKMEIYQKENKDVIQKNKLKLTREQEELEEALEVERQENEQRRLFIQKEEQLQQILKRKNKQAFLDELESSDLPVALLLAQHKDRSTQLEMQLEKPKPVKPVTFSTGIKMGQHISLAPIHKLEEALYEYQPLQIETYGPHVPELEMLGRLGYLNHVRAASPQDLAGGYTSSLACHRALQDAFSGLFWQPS
# ASSAY_NAME: Biochemical assay for CDK7 (TR-FRET kinase assay)
# PROTOCOL_CONDITIONS: 60 min pre-incubation; 1 mM ATP; read-out: IC50
pIC50: −log10 of the molar value.

- COMPOUND: "C=CC(=O)N1CCCCC1C(=O)Nc1cccc(CNc2nc(NC3CCOCC3)nc3c(C(C)C)cnn23)c1 (stereo not drawn)"
  pIC50: "> 6.52"
- COMPOUND: "C=CC(=O)N[C@H]1CC[C@@H](C(=O)Nc2cccc(CNc3nc(OC4CCN(C)C4)nc4c(C(C)C)cnn34)c2)CC1 (stereo partly drawn)"
  pIC50: "> 6.52"
- COMPOUND: "C=CC(=O)N1CCC(NC(=O)c2cccc(Nc3nc(OC4CCN(C)CC4)nc4c(C(C)C)cnn34)c2)CC1"
  pIC50: "> 6.52"
- COMPOUND: "CC(C)c1cnn2c(Nc3cccc(NC(=O)[C@H]4CC[C@H](NC(=O)/C=C/CN(C)C)CC4)c3)nc(OC3CCN(C)CC3)nc12"
  pIC50: "> 6.52"
- COMPOUND: "C=CC(=O)N[C@H]1CC[C@@H](C(=O)Nc2cccc(CNc3nc(OC4CCN(C)CC4)nc4c(C(C)C)cnn34)c2)CC1"
  pIC50: "> 6.52"
- COMPOUND: "C=CC(=O)N1CCC(C(=O)Nc2cccc(CNc3nc(OC4CCN(C)CC4)nc4c(C(C)C)cnn34)c2)C1 (single isomer, unassigned) [Compound 110]"
  pIC50: "> 6.52"
- COMPOUND: "CC(C)c1cnn2c(NCc3cccc(NC(=O)C4CCCCN4C(=O)/C=C/CN(C)C)c3)nc(NC3CCOCC3)nc12 (stereo not drawn)"
  pIC50: "> 6.52"
- COMPOUND: "CC(C)c1cnn2c(NCc3cc(F)cc(NC(=O)/C=C/CN(C)C)c3)nc(NC3CCOCC3)nc12"
  pIC50: "> 6.52"
- COMPOUND: "C=CC(=O)N[C@H]1CC[C@@H](C(=O)Nc2cccc(CNc3nc(OC4CCN(C)CC4)nc4c(C5CC5)cnn34)c2)CC1"
  pIC50: "> 6.52"
- COMPOUND: "C=CC(=O)N1CCC(C(=O)Nc2cccc(CNc3nc(NC4CCCC(O)C4)nc4c(C(C)C)cnn34)c2)C1 (single isomer, unassigned) [Compound 13]"
  pIC50: "6.00 to 6.52"
- COMPOUND: "C=CC(=O)N1CCC(C(=O)Nc2ccc(F)c(CNc3nc(NC4CCOCC4)nc4c(C(C)C)cnn34)c2)C1 (stereo not drawn)"
  pIC50: "> 6.52"
- COMPOUND: "C=CC(=O)NCC(=O)Nc1cccc(CNc2nc(NC3CCOCC3)nc3c(C(C)C)cnn23)c1"
  pIC50: "> 6.52"

###

# System: RNA polymerase II CTD phosphorylation (MDA-MB-231/NCI-H358 cells)
# ASSAY_NAME: Inhibition of RNA polymerase II CTD phosphorylation in cell western assay
# Type: cell-based
# PROTOCOL_CONDITIONS: 4 hours incubation, phospho RNA Pol II Ser-5 or Ser-2
pEC50: −log10 of the molar value.
Parameter pEC50: see the listing below.

- MOLECULE: "C=CC(=O)N1CCC(C(=O)Nc2cccc(CNc3nc(OC4CCN(C)CC4)nc4c(C(C)C)cnn34)c2)C1 (stereo not drawn) [Compound 108]"
  pEC50: "5.00 to 6.00"
- MOLECULE: "C=CC(=O)N1CCCC1C(=O)Nc1cccc(CNc2nc(NC3CCOCC3)nc3c(C(C)C)cnn23)c1 (stereo not drawn) [Compound 3]"
  pEC50: "≥ 6.00"
- MOLECULE: "C=CC(=O)N1CCC(C(=O)Nc2cccc(CNc3nc(OC4CCN(C)CC4)nc4c(C(C)C)cnn34)c2)C1 (single isomer, unassigned) [Compound 110]"
  pEC50: "5.00 to 6.00"
- MOLECULE: "CC(C)c1cnn2c(Nc3cccc(NC(=O)[C@H]4CC[C@H](NC(=O)/C=C/CN(C)C)CC4)c3)nc(OC3CCN(C)CC3)nc12 [Compound 132]"
  pEC50: "< 5.00"
- MOLECULE: "C=CC(=O)N1CCCC(C(=O)Nc2cccc(C(C)Nc3nc(OC4CCN(C)CC4)nc4c(C(C)C)cnn34)c2)C1 (stereo not drawn) [Compound 119]"
  pEC50: "< 5.00"
- MOLECULE: "C=CC(=O)N1CCC(C(=O)Nc2cccc(CNc3nc(NC4CCOCC4)nc4c(C(C)C)cnn34)c2)C1 (single isomer, unassigned) [Compound 5]"
  pEC50: "5.00 to 6.00"
- MOLECULE: "CC(C)c1cnn2c(NCc3ccc(F)c(NC(=O)[C@H]4CC[C@@H](NC(=O)/C=C/CN(C)C)CC4)c3)nc(OC3CCN(C)CC3)nc12 [Compound 124]"
  pEC50: "< 5.00"
- MOLECULE: "C=CC(=O)N1CCC1C(=O)Nc1cccc(CNc2nc(OC3CCN(C)CC3)nc3c(C(C)C)cnn23)c1 (stereo not drawn) [Compound 94]"
  pEC50: "≥ 6.00"
- MOLECULE: "C=CC(=O)N[C@H]1CC[C@@H](C(=O)Nc2cccc(CNc3nc(OC4CCN(C)CC4)nc4c(CC)cnn34)c2)CC1 [Compound 90]"
  pEC50: "5.00 to 6.00"
- MOLECULE: "C=CC(=O)N[C@H]1CC[C@@H](C(=O)Nc2cccc(CNc3nc(OC4CCN(C)C4)nc4c(C(C)C)cnn34)c2)CC1 (stereo partly drawn) [Compound 101]"
  pEC50: "5.00 to 6.00"
- MOLECULE: "C=CC(=O)N1CCC(C(=O)Nc2cccc(CNc3nc(OC4CCNCC4)nc4c(C(C)C)cnn34)c2)CC1 [Compound 106]"
  pEC50: "5.00 to 6.00"
- MOLECULE: "C=CC(=O)N1CCCCC1C(=O)Nc1cccc(CNc2nc(NC3CCOCC3)nc3c(C(C)C)cnn23)c1 (stereo not drawn) [Compound 21]"
  pEC50: "≥ 6.00"
- MOLECULE: "C=CC(=O)N1CCC(C(=O)Nc2cccc(CNc3nc(OC4CCOCC4)nc4c(C(C)C)cnn34)c2)C1 (stereo not drawn) [Compound 95]"
  pEC50: "≥ 6.00"
- MOLECULE: "C=CC(=O)N1CCC(C(=O)Nc2cccc(CNc3nc(OC4CCN(C)CC4)nc4c(C(C)C)cnn34)c2)C1 (single isomer, unassigned) [Compound 109]"
  pEC50: "5.00 to 6.00"
- MOLECULE: "C=CC(=O)N1CCCC(C(=O)Nc2cc(CNc3nc(OC4CCN(C)CC4)nc4c(C(C)C)cnn34)ccc2F)C1 (stereo not drawn) [Compound 117]"
  pEC50: "5.00 to 6.00"
- MOLECULE: "CC(C)c1cnn2c(Nc3cccc(C(=O)NC4CCN(C(=O)/C=C/CN(C)C)CC4)c3)nc(OC3CCN(C)CC3)nc12 [Compound 134]"
  pEC50: "5.00 to 6.00"
- MOLECULE: "C=CC(=O)N1CCCC(C(=O)Nc2cccc(CNc3nc(NC4CCN(C)CC4)nc4c(C(C)C)cnn34)c2)C1 (stereo not drawn) [Compound 8]"
  pEC50: "≥ 6.00"
- MOLECULE: "C=CC(=O)N1CCC(NC(=O)c2cccc(Nc3nc(OC4CCN(C)CC4)nc4c(C(C)C)cnn34)c2)CC1 [Compound 128]"
  pEC50: "5.00 to 6.00"
